- Test system: MS2 coat protein
- assay_method_text: apparent KD of MS2 coat protein; designed switch direction (-1 OFF switch, 1 ON switch): -1; higher = weaker reporter binding
- condition_parameters: Eterna round: R95; input ligand: microRNA oligo, concentration not stated
Classification field: enter label 1 for apparent KD of MS2 coat protein values not below 30 nM, label 0 for values below it.

Does apparent KD of MS2 coat protein meet or surpass 30 nM for UCCAACCCUGUGAGGAUAUCGUCCAUUAUUUGUAACGAGAAGGCACAUGAGGAUCACCCAUGUUUUUUAUUUUU [JR_BMOE4_Sub080] (puzzle: Brourd's mod of Exclusion 4) ? label 0

Does apparent KD of MS2 coat protein meet or surpass 30 nM for CCUGCACAUGAGGAUCACCCAUGUCAGGAUAUCUCGCCGUGAAGAGCAACACGGUAUUAGAGAAGGGACACGGG [Tixe] (puzzle: Exclusion 1) ? label 0

Does apparent KD of MS2 coat protein meet or surpass 30 nM for UUAUUACAAGCAAGAUCCUACAUGAGGAUCACCCAUGUGCUCGUCUUAUAAGGUACAGUGACGAAAGUCACAGUACC [Sensor 3, v1 - 00] (puzzle: Sensor v3, turn-off variant 1) ? label 1

Does apparent KD of MS2 coat protein meet or surpass 30 nM for ACUUGCGAUAUGCUCGUCUUAUUUUUGUUGACGUUCUAUACAUGAGGAUCACCCAUGUUUUGUUCCUUGUGCUGGUA [JR_SV3TOV2_Sub072] (puzzle: Sensor v3, turn-off variant 2) ? label 1

====

- Test system: K4 kissing-loop RNA reporter;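 note: bound reporter read as fluorescence of individual clusters on recovered sequencing chips by microscopy, with normalized cluster intensities fitted with a binding model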
- assay_method_text: apparent KD of K4 kissing-loop reporter; higher = weaker reporter binding
- condition_parameters: Eterna round: R107; input ligand: FMN 200 uM
observable: apparent KD of K4 kissing-loop reporter (nM)
The figure you give is taken to be in nM; do not add the unit.

GGAUAGGAUAGAGGAUAUGGUUUAUGCAGGAAUAACUUAUUGUGUAAAUCCAUAGGGAGUGAUGUUCCAGAAGGCUGUCCUAUCG [MatMod 14 - Jieux - Exclusion - FMN B] = 379

Quick check: apparent KD of K4 kissing-loop reporter on K4 kissing-loop RNA reporter, item "UGACUGGACUGAAGGAGCGCUAAACUCCUAGUGAUGUUAGGAUAACGAGACAAAGUCUCGAAGCAGGUAGGUCGCAGUCUAGUCU" ? 149

Quick check: apparent KD of K4 kissing-loop reporter on K4 kissing-loop RNA reporter, item UGUGGAGGAUAUGAUACCAGCAGUGAGAGAGAGGAAGUAUAGUGAUGUUAUAUGAGAGAAUGCCCUUGGCAGCGUGUGUAGUAGG [SSTheophylB.J] ? 189

Quick check: apparent KD of K4 kissing-loop reporter on K4 kissing-loop RNA reporter, item AGACGCCAGUCGGCCGCCACUCACAGCAGUGAUGUUGCUGAAAAUCUAGAAGAGUGAUGUUCUUAGAGGACCGGGACUCCAGUCG [Same State Tryptophan B GF 6] ? 162

Quick check: apparent KD of K4 kissing-loop reporter on K4 kissing-loop RNA reporter, item "GGUAGCAUGGCGGCCGCCACUUAAUCACUCCAGGAUGAGGAAUAUAAGCAGUGAUGUUGCUAAGUAAGGACCGGGCCAUGCUACC" ? 269

====

- Tested on: MS2 coat protein
- assay_method_text: apparent KD of MS2 coat protein; designed switch direction (-1 OFF switch, 1 ON switch): -1; higher = weaker reporter binding
- condition_parameters: Eterna round: R95; input ligand: microRNA oligo, concentration not stated
Classification field: enter rule met for apparent KD of MS2 coat protein values not below 20 nM, rule not met for values below it.

See these solved cases before continuing.
AGAAAUGCCCAUGGCCACAAGCUUUUUGCUUAUCUUACCACAUGAGGAUCACCCAUGUGACAUGGGCUCCUGAUAAU [Teedor] (puzzle: Sensor v3, turn-off variant 2) = rule not met
GGUGCGUUUGUGAGGAUAUGCUGGUCCUUGGAUCGGCAGAAGGCACAUGAGGAUCACCCAUGUGGUGUCGUACC [salish99_Bmod_Ex4_035] (puzzle: Brourd's mod of Exclusion 4) = rule met
UUUUAACAUGAGGAUCACCCAUGUGAGGAUAUCGAAAUUUAUAUUAAUAUUUUUAAUUCGAGAAGGCACAUUUU [JMF 69] (puzzle: Exclusion 1) = rule met
GUAGAGUAAGGAUAUGCAGAAUAGGAUAGAAUGGUUAGAAUGUAGAAGGUACAUGAGGAUCACCCAUGUAAUGU [Excluse me!!!! 10 - Jieux - Exclusion 4] (puzzle: Exclusion 4) = rule met

For the next question, use this sequence.
Does apparent KD of MS2 coat protein meet or surpass 20 nM for AUUGUAGUUGUGAGGAUAUCGUAGAUUUAUUGAAACGAGAAGGCACAUGAGGAUCACCCAUGUAAGUUGUAGGU [JR_BMOE4_Sub054] (puzzle: Brourd's mod of Exclusion 4) ? rule met

====

- Test system: MS2 coat protein
- assay_method_text: apparent KD of MS2 coat protein; higher = weaker reporter binding
- condition_parameters: Eterna round: R107; input ligand: theophylline 20 uM
observable: apparent KD of MS2 coat protein
Give your result as the value with the unit written after it.

Illustrative cases are given below, each with its answer.
AGGAGACAUGAGGAUCACCCAUGUCCAGAUACCAGAAUGUCUUUGUUCCCUUGGCAGCUGUGGAAAUCUGACCUGCCUCGGUCUG [theeternabot_sameState_MS2_Theo_A_31] = 17.9 nM
GGAACAUGAGGAUCACCCAUGUAAUCACGACGAGGACCGGUACGGCCGCCACUCGUAUUCACGCAAGGUAGAGGAAUACGUAGGC [theeternabot_exclusion_MS2_Trp_A_2] = 17.6 nM
GAUGAACAUACUGAUACCAGUGUACUGACAUGAGGAUCACCCAUGUUGGGUUUUGUUGUACACCCUUGGCAGCAGAAUGUUUAUC [AstrosExyTheB#7] = 66.5 nM
UUAUAUAUGCGAAGGAGCGGGAAAUAUAUAUAUAUAAUCCUAACAUGAGGAUCACCCAUGUCCCAGGUAGGUCGCGCAUAUAUAG [12.C] = 117 nM
AUCAUAAUAGACUCGUUAGAUUAUAUGGAACGAGGACCGGUACGGCCGCCACUCGUGAUGUACAUGAGGAUCACCCAUGUUAGCU [JR_Nu_SSTryptoA_Sub025] = 18.8 nM

Form field: reported apparent KD of MS2 coat protein of ACAUGAGGAUCACCCAUGUAAAUAACGGAAGGAGCGUGCAAAAGCACAGGUAGGUCGCCGAUAUAAAUAUUGGGUAAUAUAUUAU [ExyArgA#1] 41.5 nM

Form field: reported apparent KD of MS2 coat protein of CAAAAUUACGGAAGGAGCGCGGGUAGGCGGGUUGGAUCACAUGAGGAUCACCCAUGUAAAUCGCAGGUAGGUCGCCGUAAACGCG [Eslagele] 43.9 nM

Form field: reported apparent KD of MS2 coat protein of UUAUAUAUGCGAAGGAGCGGGAAAUAUAUAUAUAUAAUCCUAACAUGAGGAUCACCCAUGUCCCAGGUAGGUCGCGCAUAUAUGG [12.E] 76.8 nM

Form field: reported apparent KD of MS2 coat protein of UGUAUGUGAUUUGAUACCAGACCAGCUGGUGGUGCAUGAGGAACACCCAUGCAGGUUUGGGUCCCUUGGCAGCAAAUCGCAUACU [SS Theo B #24 Ms19] 150 nM

Form field: reported apparent KD of MS2 coat protein of UGUAACAUGAGGAUCACCCAUGUGAGUGAUACCAGAUUAGUAGUAGUCCCUUGGCAGCACAUUGGGCGAGUGUAUAGUCUAUGCG [Same State - Theophylline A (Freestyle 11)] 219 nM

Form field: reported apparent KD of MS2 coat protein of UUUGCACAUGAGGAUCACCCAUGUACAGAUACCAGCCUCAUCUACGGCCCUUGGCAGCUGAGACAAUGGUGACAUGAUGGGCUUU [Istein] 20.4 nM

Form field: reported apparent KD of MS2 coat protein of CAGGUUAGGGCGGCCGCCACUGUGGCUACGGUACAUGAGGAUCACCCAUGUUUGUGGUUGAUCUACAGGACCGGGCCCUGACACG [Matidier] 145 nM

Form field: reported apparent KD of MS2 coat protein of AACAUGAGGAUCACCCAUGUCCUCGUGUACCGAGGACCGGUACGGCCGCCACUCGGUUCUCGCGAGGAUGGUCAAAGACUAUCCA [Omei Trp A SS B v4] 643 nM

====

- System: MS2 coat protein
- assay_method_text: apparent KD of MS2 coat protein; designed switch direction (-1 OFF switch, 1 ON switch): -1; higher = weaker reporter binding
- condition_parameters: Eterna round: R95; input ligand: none
observable: apparent KD of MS2 coat protein (nM)
The figure you give is taken to be in nM; do not add the unit.

AAAUAAUAGAUAAAAUAAUACAUGAGGAUCACCCAUGUGCGAUGUUGAGGGUGAUACAGGCUUUUUGCUCGUCUUAU (puzzle: Sensor v3, turn-off variant 1) = 67.9

Then there is this sequence:
Form field: reported apparent KD of MS2 coat protein of GUGUAGCGAGGAUAUACAUGAGGAUCACCCAUGUGAAUAAGAUAGAAUAAGAUAAAGUGUAGAAGGUGUAGUGU [Excluse me!!! 11 - Jieux - Exclusion 3] (puzzle: Exclusion 3) 54.5
